Attribution: BigSolDB 2.1

- condition: in acetonitrile, 308.15 K
measure: solubility (mole fraction)
Field format: numeric only.

*Q* Please look up its solubility (mole fraction): `Cc1c(C(=O)c2c[nH]n(C)c2=O)ccc(S(C)(=O)=O)c1C1=NOCC1`
*A* 0.00161

* * *

- condition: in THF, 298.15 K
measure: solubility (mole fraction)
Field format: numeric only.

*Q* Please look up its solubility (mole fraction): `Cc1c(C(=O)c2c[nH]n(C)c2=O)ccc(S(C)(=O)=O)c1C1=NOCC1`
*A* 0.00397

* * *

- condition: in acetonitrile, 318.15 K
measure: solubility (mole fraction)
Field format: numeric only.

*Q* Please look up its solubility (mole fraction): `Cc1c(C(=O)c2c[nH]n(C)c2=O)ccc(S(C)(=O)=O)c1C1=NOCC1`
*A* 0.00232

* * *

- condition: in toluene, 303.15 K
measure: solubility (mole fraction)
Field format: numeric only.

*Q* Please look up its solubility (mole fraction): `Cc1c(C(=O)c2c[nH]n(C)c2=O)ccc(S(C)(=O)=O)c1C1=NOCC1`
*A* 0.000479

* * *

- condition: in acetonitrile, 303.15 K
measure: solubility (mole fraction)
Field format: numeric only.

*Q* Please look up its solubility (mole fraction): `Cc1c(C(=O)c2c[nH]n(C)c2=O)ccc(S(C)(=O)=O)c1C1=NOCC1`
*A* 0.00134

* * *

- condition: in acetone, 323.15 K
measure: solubility (mole fraction)
Field format: numeric only.

*Q* Please look up its solubility (mole fraction): `Cc1c(C(=O)c2c[nH]n(C)c2=O)ccc(S(C)(=O)=O)c1C1=NOCC1`
*A* 0.0037

* * *

- condition: in n-propanol, 288.15 K
measure: solubility (mole fraction)
Field format: numeric only.

*Q* Please look up its solubility (mole fraction): `Cc1c(C(=O)c2c[nH]n(C)c2=O)ccc(S(C)(=O)=O)c1C1=NOCC1`
*A* 7.35e-05

* * *

- condition: in toluene, 313.15 K
measure: solubility (mole fraction)

*Q* Please look up its solubility (mole fraction): `Cc1c(C(=O)c2c[nH]n(C)c2=O)ccc(S(C)(=O)=O)c1C1=NOCC1`
*A* 0.000655

* * *

- condition: in isobutyl acetate, 293.15 K
measure: solubility (mole fraction)

*Q* Please look up its solubility (mole fraction): `Cc1c(C(=O)c2c[nH]n(C)c2=O)ccc(S(C)(=O)=O)c1C1=NOCC1`
*A* 0.000549

* * *

- condition: in THF, 288.15 K
measure: solubility (mole fraction)
Field format: numeric only.

*Q* Please look up its solubility (mole fraction): `Cc1c(C(=O)c2c[nH]n(C)c2=O)ccc(S(C)(=O)=O)c1C1=NOCC1`
*A* 0.0031

* * *

- condition: in acetone, 313.15 K
measure: solubility (mole fraction)
Field format: numeric only.

*Q* Please look up its solubility (mole fraction): `Cc1c(C(=O)c2c[nH]n(C)c2=O)ccc(S(C)(=O)=O)c1C1=NOCC1`
*A* 0.00274

* * *

- condition: in n-propyl acetate, 293.15 K
measure: solubility (mole fraction)
Field format: numeric only.

*Q* Please look up its solubility (mole fraction): `Cc1c(C(=O)c2c[nH]n(C)c2=O)ccc(S(C)(=O)=O)c1C1=NOCC1`
*A* 0.000594

* * *

- condition: in n-propyl acetate, 323.15 K
measure: solubility (mole fraction)

*Q* Please look up its solubility (mole fraction): `Cc1c(C(=O)c2c[nH]n(C)c2=O)ccc(S(C)(=O)=O)c1C1=NOCC1`
*A* 0.00173
